Measured values drawn from paper PMC12523282 for this set.

target: α-glucosidase (Saccharomyces cerevisiae); construct: the yeast form of α-glucosidase, which was extracted from Saccharomyces cerevisiae; purchased Sigma-Aldrich; host or cells: Saccharomyces cerevisiae (extracted); test: Anti-α-glucosidase assay (p-nitrophenyl-α-D-glucopyranoside substrate, absorbance 405 nm); format: biochemical; conditions: read-out: In (%), inhibition percentage against α-glucosidase
Use t when the recorded inhibition at 750 µM is no lower than 90%; use f when it is lower.

1) Cc1cccc(NC(=O)Cn2cc(COc3ccc(/C=N/Nc4nnc(-c5ccccc5)c(-c5ccccc5)n4)cc3)nn2)c1 [Compound 13c] ... t

Query: Is inhibition at 750 µM for CCc1ccc(NC(=O)Cn2cc(COc3ccc(/C=N/Nc4nnc(-c5ccccc5)c(-c5ccccc5)n4)cc3)nn2)cc1 [Compound 13e] at or above 90%?
Reply: t

Query: Is reported inhibition at 750 µM greater than or equal to 90% here: O=C(Cn1cc(COc2ccc(/C=N/Nc3nnc(-c4ccccc4)c(-c4ccccc4)n3)cc2)nn1)NCCc1ccccc1 [Compound 13n]
Reply: t

Query: Decide: inhibition at 750 µM of Cc1ccc(NC(=O)Cn2cc(COc3ccc(/C=N/Nc4nnc(-c5ccccc5)c(-c5ccccc5)n4)cc3)nn2)c(C)c1 [Compound 13d] >= 90%?
Reply: f

Query: Entry O=C(Cn1cc(COc2ccc(/C=N/Nc3nnc(-c4ccccc4)c(-c4ccccc4)n3)cc2)nn1)Nc1ccccc1[N+](=O)[O-] [Compound 13l] : is its inhibition at 750 µM no less than 90%?
Reply: f

Query: Determine whether measured inhibition at 750 µM meets or exceeds 90% for O=C(Cn1cc(COc2ccc(/C=N/Nc3nnc(-c4ccccc4)c(-c4ccccc4)n3)cc2)nn1)Nc1ccccc1Cl [Compound 13h]
Reply: f

Query: hey, is inhibition at 750 µM for this one >= 90%? Cc1ccccc1NC(=O)Cn1cc(COc2ccc(/C=N/Nc3nnc(-c4ccccc4)c(-c4ccccc4)n3)cc2)nn1 [Compound 13b]
Reply: t

====

target: α-glucosidase (Saccharomyces cerevisiae); construct: the yeast form of α-glucosidase, which was extracted from Saccharomyces cerevisiae; purchased Sigma-Aldrich; host or cells: Saccharomyces cerevisiae (extracted); test: Anti-α-glucosidase assay (p-nitrophenyl-α-D-glucopyranoside substrate, absorbance 405 nm); format: biochemical; conditions: Conc. 60 (unit not given); IC50 determination curve
MEASURED_METRIC: Inhibation

A selection of reference data follows.
1. O=C(Cn1cc(COc2ccc(/C=N/Nc3nnc(-c4ccccc4)c(-c4ccccc4)n3)cc2)nn1)Nc1cccc(Cl)c1 [Compound 13i] ... 84
2. O=C(Cn1cc(COc2ccc(/C=N/Nc3nnc(-c4ccccc4)c(-c4ccccc4)n3)cc2)nn1)Nc1ccccc1[N+](=O)[O-] [Compound 13l] ... 59

Query: Request the reported Inhibation associated with Cc1ccccc1NC(=O)Cn1cc(COc2ccc(/C=N/Nc3nnc(-c4ccccc4)c(-c4ccccc4)n3)cc2)nn1 [Compound 13b]
Reply: 83

====

biological target: α-glucosidase (Saccharomyces cerevisiae, UniProt P53341); construct: the yeast form of α-glucosidase, which was extracted from Saccharomyces cerevisiae; purchased Sigma-Aldrich; host or cells: Saccharomyces cerevisiae (extracted); assay: Anti-α-glucosidase assay (p-nitrophenyl-α-D-glucopyranoside substrate, absorbance 405 nm); assay type: biochemical; details: Conc. 15 (unit not given); IC50 determination curve
Sequence (P53341 whole entry): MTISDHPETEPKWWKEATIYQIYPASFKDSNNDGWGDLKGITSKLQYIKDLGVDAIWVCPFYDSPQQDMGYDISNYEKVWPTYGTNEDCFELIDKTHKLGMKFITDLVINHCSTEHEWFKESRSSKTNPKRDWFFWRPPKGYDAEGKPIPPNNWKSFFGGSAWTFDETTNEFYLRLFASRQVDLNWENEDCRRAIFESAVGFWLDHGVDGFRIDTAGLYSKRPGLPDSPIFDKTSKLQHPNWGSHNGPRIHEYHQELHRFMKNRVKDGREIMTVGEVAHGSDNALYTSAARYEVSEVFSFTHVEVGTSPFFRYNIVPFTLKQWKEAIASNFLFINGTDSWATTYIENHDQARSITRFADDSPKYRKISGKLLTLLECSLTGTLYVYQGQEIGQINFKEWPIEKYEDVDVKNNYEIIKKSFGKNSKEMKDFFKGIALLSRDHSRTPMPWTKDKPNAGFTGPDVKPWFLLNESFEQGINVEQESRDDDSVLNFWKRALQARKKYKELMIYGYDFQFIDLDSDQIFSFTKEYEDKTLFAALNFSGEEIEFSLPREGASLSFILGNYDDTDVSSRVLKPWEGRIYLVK
MEASURED_METRIC: Inhibation
Answers are plain numbers.

1) CCc1ccc(NC(=O)Cn2cc(COc3ccc(/C=N/Nc4nnc(-c5ccccc5)c(-c5ccccc5)n4)cc3)nn2)cc1 [Compound 13e] ... 69.6
2) O=C(Cn1cc(COc2ccc(/C=N/Nc3nnc(-c4ccccc4)c(-c4ccccc4)n3)cc2)nn1)Nc1ccccc1F [Compound 13g] ... 69.05
3) Cc1ccc(NC(=O)Cn2cc(COc3ccc(/C=N/Nc4nnc(-c5ccccc5)c(-c5ccccc5)n4)cc3)nn2)c(C)c1 [Compound 13d] ... 61.12

Go through the list and state Inhibation for each entry.
1. O=C(Cn1cc(COc2ccc(/C=N/Nc3nnc(-c4ccccc4)c(-c4ccccc4)n3)cc2)nn1)NCc1ccccc1 [Compound 13m]
2. O=C(Cn1cc(COc2ccc(/C=N/Nc3nnc(-c4ccccc4)c(-c4ccccc4)n3)cc2)nn1)Nc1ccccc1[N+](=O)[O-] [Compound 13l]

Reply:
1. 70
2. 37.76

Fill in Inhibation for each of the 5 compounds listed.
1. O=C(Cn1cc(COc2ccc(/C=N/Nc3nnc(-c4ccccc4)c(-c4ccccc4)n3)cc2)nn1)Nc1cccc(Cl)c1 [Compound 13i]
2. Cc1cccc(NC(=O)Cn2cc(COc3ccc(/C=N/Nc4nnc(-c5ccccc5)c(-c5ccccc5)n4)cc3)nn2)c1 [Compound 13c]
3. O=C(Cn1cc(COc2ccc(/C=N/Nc3nnc(-c4ccccc4)c(-c4ccccc4)n3)cc2)nn1)Nc1ccccc1Cl [Compound 13h]
4. Cc1ccccc1NC(=O)Cn1cc(COc2ccc(/C=N/Nc3nnc(-c4ccccc4)c(-c4ccccc4)n3)cc2)nn1 [Compound 13b]
5. COc1ccc(NC(=O)Cn2cc(COc3ccc(/C=N/Nc4nnc(-c5ccccc5)c(-c5ccccc5)n4)cc3)nn2)cc1 [Compound 13f]

Reply:
1. 53.4
2. 74.8
3. 75.34
4. 54.87
5. 56
